target: PDE7B (Homo sapiens, UniProt Q9NP56); construct: full-length human PDE1A (NP_001003683.1), PDE1C (NP_005011.1), PDE5A (NP_001074.2), PDE7B (NP_061818.1); His (N); made in house; host or cells: Sf9 (baculovirus, pFastBac1); assay: PDE enzyme assay using [3H]cAMP as substrate, PDE7B; type: biochemical; details: [3H]cAMP 47 nM; enzyme 0.5 nM; read-out: IC50 (nM) of Example 1, PDE7B
experimental_endpoint: IC50 (nM)
Enter your answer as a number in nM; do not include the unit.

Challenge: What value of measured IC50 is listed for `O=c1c2nnc(C3(C4CC4)CC3)n2c2c(n1CC1CC1)CCCC2` ?
Response given: 2180

---

target: PDE6AB (PDE6A/6B dimer) (Homo sapiens, UniProt P16499+P35913); construct: full-length human PDE6A (NP_000431.2); full-length human PDE6A (NP_000431.2) and PDE6B (AAH00249.1); His (N); Flag (N); made in house; host or cells: Sf9 (baculovirus, pFastBacDual); test: PDE enzyme assay using [3H]cGMP as substrate, PDE6AB; type: biochemical; settings: [3H]cGMP 80 nM; enzyme 5 nM; read-out: IC50 (nM) of Example 1, PDE 6AB
Sequence (P16499 whole entry): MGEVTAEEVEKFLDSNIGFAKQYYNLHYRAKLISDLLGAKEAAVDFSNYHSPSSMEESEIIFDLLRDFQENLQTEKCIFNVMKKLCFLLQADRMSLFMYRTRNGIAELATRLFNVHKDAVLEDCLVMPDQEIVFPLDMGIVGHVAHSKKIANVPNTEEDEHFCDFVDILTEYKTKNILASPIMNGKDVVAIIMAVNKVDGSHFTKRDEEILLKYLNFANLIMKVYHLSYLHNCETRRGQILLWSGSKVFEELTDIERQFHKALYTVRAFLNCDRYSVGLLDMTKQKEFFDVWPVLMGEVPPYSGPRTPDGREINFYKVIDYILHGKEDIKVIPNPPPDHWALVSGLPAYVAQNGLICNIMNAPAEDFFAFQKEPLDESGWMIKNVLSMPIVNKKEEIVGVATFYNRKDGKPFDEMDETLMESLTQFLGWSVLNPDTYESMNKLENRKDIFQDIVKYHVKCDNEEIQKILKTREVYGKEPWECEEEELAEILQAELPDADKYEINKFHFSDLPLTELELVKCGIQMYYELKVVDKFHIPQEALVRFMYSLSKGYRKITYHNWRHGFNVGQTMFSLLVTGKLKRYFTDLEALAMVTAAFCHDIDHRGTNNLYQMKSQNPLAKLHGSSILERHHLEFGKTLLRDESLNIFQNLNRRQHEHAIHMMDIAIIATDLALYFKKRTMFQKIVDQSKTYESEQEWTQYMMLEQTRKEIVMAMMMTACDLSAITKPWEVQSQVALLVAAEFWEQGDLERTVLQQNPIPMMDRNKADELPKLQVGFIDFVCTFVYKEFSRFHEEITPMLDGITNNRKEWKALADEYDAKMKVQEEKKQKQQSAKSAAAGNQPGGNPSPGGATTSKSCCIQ
Sequence (P35913 1-853 isoform P35913-2): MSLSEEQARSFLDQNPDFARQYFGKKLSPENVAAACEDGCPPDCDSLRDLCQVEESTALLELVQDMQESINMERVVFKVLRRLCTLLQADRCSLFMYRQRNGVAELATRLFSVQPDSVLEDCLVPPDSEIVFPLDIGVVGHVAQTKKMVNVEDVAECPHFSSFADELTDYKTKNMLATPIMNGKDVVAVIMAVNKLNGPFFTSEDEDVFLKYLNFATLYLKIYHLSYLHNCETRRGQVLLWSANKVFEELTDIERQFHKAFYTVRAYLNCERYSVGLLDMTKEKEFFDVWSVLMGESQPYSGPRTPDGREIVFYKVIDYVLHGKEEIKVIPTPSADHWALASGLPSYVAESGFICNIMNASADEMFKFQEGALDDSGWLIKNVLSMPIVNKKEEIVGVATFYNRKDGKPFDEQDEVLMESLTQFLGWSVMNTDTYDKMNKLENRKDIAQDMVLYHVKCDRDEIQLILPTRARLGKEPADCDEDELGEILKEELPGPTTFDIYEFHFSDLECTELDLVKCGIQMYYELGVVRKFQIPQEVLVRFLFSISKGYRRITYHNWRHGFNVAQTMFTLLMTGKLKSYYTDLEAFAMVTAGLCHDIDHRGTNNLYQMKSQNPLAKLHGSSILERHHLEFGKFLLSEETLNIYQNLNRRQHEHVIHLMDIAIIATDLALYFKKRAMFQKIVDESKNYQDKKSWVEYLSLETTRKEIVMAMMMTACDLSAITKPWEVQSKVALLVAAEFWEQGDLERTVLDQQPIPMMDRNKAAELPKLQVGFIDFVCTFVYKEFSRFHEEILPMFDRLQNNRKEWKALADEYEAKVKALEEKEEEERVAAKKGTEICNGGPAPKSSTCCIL
experimental_endpoint: IC50

Challenge: What value of measured IC50 is listed for O=c1c2nnc(C3(C4CC4)CC3)n2c2c(n1CC1CC1)CCCC2 [Example 1] ?
Response given: > 10000 nM

---

target: PDE8A (Homo sapiens); construct: full-length human PDE8A (NP_002596.1); Flag (N); made in house; host or cells: Sf9 (baculovirus, pFastBac1); assay: PDE enzyme assay using [3H]cAMP as substrate, PDE8A; format: biochemical; conditions: [3H]cAMP 47 nM; enzyme 0.06 nM; read-out: IC50 (nM) of Example 1, PDE8A
Sequence (O60658 whole entry): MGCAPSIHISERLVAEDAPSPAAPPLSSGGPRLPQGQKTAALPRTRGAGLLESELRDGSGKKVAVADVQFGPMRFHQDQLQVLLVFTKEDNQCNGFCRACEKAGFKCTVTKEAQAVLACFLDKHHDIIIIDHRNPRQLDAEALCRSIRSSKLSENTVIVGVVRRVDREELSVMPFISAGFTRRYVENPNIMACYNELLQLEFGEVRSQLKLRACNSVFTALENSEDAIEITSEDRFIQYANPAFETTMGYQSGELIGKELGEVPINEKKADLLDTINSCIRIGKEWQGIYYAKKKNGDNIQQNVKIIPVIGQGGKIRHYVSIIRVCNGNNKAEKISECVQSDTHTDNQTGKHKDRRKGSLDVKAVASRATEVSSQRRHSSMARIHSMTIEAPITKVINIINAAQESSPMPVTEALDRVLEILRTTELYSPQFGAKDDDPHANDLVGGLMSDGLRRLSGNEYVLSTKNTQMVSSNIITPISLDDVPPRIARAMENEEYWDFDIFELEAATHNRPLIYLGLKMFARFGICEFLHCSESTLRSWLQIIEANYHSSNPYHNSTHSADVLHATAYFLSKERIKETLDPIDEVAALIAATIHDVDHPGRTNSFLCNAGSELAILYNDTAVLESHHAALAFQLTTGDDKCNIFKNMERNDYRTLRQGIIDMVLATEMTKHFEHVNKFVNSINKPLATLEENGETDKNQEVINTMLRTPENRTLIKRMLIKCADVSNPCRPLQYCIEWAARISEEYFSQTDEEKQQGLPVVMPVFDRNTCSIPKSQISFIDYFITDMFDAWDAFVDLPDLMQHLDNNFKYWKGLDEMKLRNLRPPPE
experimental_endpoint: IC50

Challenge: What value of measured IC50 is listed for `O=c1c2nnc(C3(C4CC4)CC3)n2c2c(n1CC1CC1)CCCC2` ?
Response given: > 10000 nM

---

target: PDE11A (Homo sapiens); construct: full-length human PDE8A (NP_002596.1) and PDE11A (AAI12394.1); Flag (N); made in house; host or cells: Sf9 (baculovirus, pFastBac1); assay: PDE enzyme assay using [3H]cGMP as substrate, PDE11A; assay type: biochemical; settings: [3H]cGMP 80 nM; enzyme 0.03 nM; read-out: IC50 (nM) of Example 1, PDE11A
Sequence (Q9HCR9 whole entry): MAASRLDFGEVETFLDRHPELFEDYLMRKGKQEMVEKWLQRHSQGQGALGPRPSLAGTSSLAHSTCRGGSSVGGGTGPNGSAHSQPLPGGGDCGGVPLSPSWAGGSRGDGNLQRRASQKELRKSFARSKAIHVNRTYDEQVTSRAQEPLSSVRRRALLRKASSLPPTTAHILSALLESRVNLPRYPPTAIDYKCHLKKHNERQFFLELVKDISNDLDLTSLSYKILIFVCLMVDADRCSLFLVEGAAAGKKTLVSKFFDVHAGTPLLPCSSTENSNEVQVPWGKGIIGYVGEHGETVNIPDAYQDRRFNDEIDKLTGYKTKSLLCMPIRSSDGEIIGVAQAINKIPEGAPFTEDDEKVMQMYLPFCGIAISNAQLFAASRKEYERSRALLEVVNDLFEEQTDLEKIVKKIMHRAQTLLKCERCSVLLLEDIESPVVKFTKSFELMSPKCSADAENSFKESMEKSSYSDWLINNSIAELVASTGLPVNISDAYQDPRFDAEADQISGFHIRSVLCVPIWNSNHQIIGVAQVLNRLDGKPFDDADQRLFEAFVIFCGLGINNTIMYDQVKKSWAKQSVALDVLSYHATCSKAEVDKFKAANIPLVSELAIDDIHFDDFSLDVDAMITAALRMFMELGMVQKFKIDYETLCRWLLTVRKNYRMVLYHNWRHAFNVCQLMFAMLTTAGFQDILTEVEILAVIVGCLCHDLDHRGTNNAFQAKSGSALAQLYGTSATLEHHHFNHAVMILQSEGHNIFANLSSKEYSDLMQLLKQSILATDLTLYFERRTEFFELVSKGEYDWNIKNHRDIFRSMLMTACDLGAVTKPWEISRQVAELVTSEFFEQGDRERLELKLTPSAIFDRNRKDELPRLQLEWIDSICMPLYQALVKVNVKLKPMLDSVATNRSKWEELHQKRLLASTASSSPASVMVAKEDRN
experimental_endpoint: IC50

Challenge: // lookup IC50 | system=PDE11A (Homo sapiens) | key= `O=c1c2nnc(C3(C4CC4)CC3)n2c2c(n1CC1CC1)CCCC2`
Response given: 2970 nM

---

molecular target: PDE3A (catalytic domain) (Homo sapiens); construct: catalytic domain (residue 641-1141) of PDE3A (NP_000912.3); His (C); made in house; host or cells: Sf9 (baculovirus, pFastBac1); assay: PDE enzyme assay using [3H]cAMP as substrate, PDE3A; assay type: biochemical; settings: [3H]cAMP 47 nM, enzyme 0.008 nM, read-out: IC50 (nM) of Example 1, PDE3A
Sequence (Q14432 641-1141): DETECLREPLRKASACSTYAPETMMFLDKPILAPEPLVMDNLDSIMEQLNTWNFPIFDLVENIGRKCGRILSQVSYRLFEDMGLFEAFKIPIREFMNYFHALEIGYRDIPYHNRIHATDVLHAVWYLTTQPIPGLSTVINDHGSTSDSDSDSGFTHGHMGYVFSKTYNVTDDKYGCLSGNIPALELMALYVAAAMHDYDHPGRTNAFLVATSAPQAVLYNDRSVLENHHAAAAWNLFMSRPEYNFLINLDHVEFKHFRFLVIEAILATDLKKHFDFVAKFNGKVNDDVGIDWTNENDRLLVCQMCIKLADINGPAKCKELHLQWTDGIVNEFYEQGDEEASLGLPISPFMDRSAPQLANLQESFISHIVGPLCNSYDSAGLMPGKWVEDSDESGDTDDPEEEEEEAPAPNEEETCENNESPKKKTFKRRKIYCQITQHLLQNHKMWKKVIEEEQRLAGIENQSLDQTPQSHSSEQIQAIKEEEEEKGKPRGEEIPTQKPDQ
experimental_endpoint: IC50

Challenge: What value of measured IC50 is listed for `O=c1c2nnc(C3(C4CC4)CC3)n2c2c(n1CC1CC1)CCCC2` ?
Response given: > 100000 nM

---

biological target: PDE10A (Homo sapiens); construct: full-length human PDE10A (AAD32595.1); Flag-His (C); made in house; host or cells: Sf9 (baculovirus, pFastBac1); assay: PDE enzyme assay using [3H]cGMP as substrate, PDE10A; format: biochemical; details: [3H]cGMP 80 nM; enzyme 0.03 nM; read-out: IC50 (nM) of Example 1, PDE10A
Sequence (Q9Y233 1-779 isoform Q9Y233-1): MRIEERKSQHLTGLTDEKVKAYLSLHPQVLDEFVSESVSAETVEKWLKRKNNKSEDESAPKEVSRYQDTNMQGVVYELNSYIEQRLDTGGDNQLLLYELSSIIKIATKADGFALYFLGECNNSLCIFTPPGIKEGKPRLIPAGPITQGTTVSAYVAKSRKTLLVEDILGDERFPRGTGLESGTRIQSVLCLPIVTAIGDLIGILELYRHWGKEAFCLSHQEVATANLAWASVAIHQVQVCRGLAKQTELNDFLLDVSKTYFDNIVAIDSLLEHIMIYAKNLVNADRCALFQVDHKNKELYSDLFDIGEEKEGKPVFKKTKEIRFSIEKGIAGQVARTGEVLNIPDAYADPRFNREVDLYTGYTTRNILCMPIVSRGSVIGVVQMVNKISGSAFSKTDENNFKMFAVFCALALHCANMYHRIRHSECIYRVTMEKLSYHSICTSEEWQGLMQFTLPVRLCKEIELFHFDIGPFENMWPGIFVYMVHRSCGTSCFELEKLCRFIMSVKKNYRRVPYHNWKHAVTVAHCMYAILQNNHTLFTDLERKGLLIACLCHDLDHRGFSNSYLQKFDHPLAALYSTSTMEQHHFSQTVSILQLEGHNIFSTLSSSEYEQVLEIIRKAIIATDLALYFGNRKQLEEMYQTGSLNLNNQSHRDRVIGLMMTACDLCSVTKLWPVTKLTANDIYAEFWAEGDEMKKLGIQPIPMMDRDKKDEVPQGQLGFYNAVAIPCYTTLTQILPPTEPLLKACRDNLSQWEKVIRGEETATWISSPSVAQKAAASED
experimental_endpoint: IC50

Challenge: What value of measured IC50 is listed for `O=c1c2nnc(C3(C4CC4)CC3)n2c2c(n1CC1CC1)CCCC2` ?
Response given: > 10000 nM

---

biological target: PDE9A (Homo sapiens, UniProt O76083); construct: full-length human PDE1A (NP_001003683.1), PDE1C (NP_005011.1), PDE5A (NP_001074.2), PDE7B (NP_061818.1) and PDE9A (NP_002597.1); His (N); made in house; host or cells: Sf9 (baculovirus, pFastBac1); experiment: PDE enzyme assay using [3H]cGMP as substrate, PDE9A; format: biochemical; settings: [3H]cGMP 20 nM; enzyme 1 nM; read-out: IC50 (nM) of Example 1, PDE9A
experimental_endpoint: IC50

Challenge: // lookup IC50 | system=PDE9A (Homo sapiens, UniProt O76083) | key= `O=c1c2nnc(C3(C4CC4)CC3)n2c2c(n1CC1CC1)CCCC2`
Response given: > 10000 nM

---

molecular target: PDE1C (Homo sapiens, UniProt Q14123); construct: full-length human PDE1A (NP_001003683.1), PDE1C (NP_005011.1); His (N); made in house; host or cells: Sf9 (baculovirus, pFastBac1); experiment: Ca2+-calmodulin dependent PDE enzyme assay (SPA), PDE1C; type: biochemical; details: [3H]cAMP 47 nM; enzyme 0.0012 nM; Ca2+/calmodulin buffer pH 7.5; read-out: IC50 (nM) of Example 1, PDE 1C
experimental_endpoint: IC50
# number then unit; no other words

Challenge: // lookup IC50 | system=PDE1C (Homo sapiens, UniProt Q14123) | key= `O=c1c2nnc(C3(C4CC4)CC3)n2c2c(n1CC1CC1)CCCC2`
Response given: 3.05 nM

---

biological target: PDE5A (Homo sapiens); construct: full-length human PDE1A (NP_001003683.1), PDE1C (NP_005011.1), PDE5A (NP_001074.2); His (N); made in house; host or cells: Sf9 (baculovirus, pFastBac1); assay: PDE enzyme assay using [3H]cGMP as substrate, PDE5A; format: biochemical; settings: [3H]cGMP 80 nM; enzyme 0.002 nM; read-out: IC50 (nM) of Example 1, PDE5A
experimental_endpoint: IC50

Challenge: // lookup IC50 | system=PDE5A (Homo sapiens) | key= O=c1c2nnc(C3(C4CC4)CC3)n2c2c(n1CC1CC1)CCCC2 [Example 1]
Response given: > 10000 nM
